Each entry below carries its recorded inhibition at 1 µM.
# studyTarget: KDR(h) (Homo sapiens)
# Sequence (P35968 20-1356): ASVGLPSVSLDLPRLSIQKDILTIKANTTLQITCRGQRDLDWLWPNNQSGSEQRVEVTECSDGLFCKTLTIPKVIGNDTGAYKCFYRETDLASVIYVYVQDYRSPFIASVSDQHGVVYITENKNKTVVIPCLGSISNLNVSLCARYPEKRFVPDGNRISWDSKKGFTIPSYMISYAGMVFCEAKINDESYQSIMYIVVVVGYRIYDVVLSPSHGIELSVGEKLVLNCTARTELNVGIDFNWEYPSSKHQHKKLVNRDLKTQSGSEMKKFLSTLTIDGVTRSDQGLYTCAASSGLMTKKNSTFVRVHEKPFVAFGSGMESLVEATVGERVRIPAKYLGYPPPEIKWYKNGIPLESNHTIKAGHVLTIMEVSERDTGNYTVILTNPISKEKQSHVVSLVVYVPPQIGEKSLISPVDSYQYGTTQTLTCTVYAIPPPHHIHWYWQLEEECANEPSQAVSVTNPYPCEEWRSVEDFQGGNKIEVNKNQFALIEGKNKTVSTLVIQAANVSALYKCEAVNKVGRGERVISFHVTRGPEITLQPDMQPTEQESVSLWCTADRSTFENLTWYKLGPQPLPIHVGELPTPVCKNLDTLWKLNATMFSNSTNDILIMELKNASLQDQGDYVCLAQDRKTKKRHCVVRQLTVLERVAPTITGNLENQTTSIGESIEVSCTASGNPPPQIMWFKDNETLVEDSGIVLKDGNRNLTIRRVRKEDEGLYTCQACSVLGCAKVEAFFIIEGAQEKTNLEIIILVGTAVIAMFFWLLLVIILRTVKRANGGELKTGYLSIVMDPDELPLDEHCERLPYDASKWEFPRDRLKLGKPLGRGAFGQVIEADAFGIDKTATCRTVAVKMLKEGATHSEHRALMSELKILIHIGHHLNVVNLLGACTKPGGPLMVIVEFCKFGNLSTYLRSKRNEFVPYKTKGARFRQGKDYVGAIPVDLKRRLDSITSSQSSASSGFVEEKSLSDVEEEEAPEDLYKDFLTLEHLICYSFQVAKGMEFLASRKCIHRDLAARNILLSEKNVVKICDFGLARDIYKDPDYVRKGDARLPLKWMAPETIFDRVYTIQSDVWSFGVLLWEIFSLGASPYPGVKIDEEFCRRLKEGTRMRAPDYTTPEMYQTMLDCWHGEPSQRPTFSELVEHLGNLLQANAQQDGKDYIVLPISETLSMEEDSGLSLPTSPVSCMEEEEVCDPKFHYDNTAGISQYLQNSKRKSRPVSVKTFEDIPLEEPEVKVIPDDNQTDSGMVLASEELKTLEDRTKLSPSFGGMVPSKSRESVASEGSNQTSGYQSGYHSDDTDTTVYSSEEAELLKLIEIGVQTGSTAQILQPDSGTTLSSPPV
# experimentSummary: Kinase assay, KDR(h)
# Type: biochemical
Use % as the unit, but write only the number.

Record excerpt, results attached:
>  <compound>
CCN1[C@H](C)CN(c2ccc(Nc3ncnc(Oc4cc(F)c5[nH]c(C)cc5c4F)c3C#N)cc2)C[C@@H]1C [Compound 47]

>  <studyTarget>
KDR(h) (Homo sapiens)

>  <measurementKind>
inhibition at 1 µM

>  <valueUnit>
%

>  <measuredResult>
74

$$$$
>  <compound>
Cc1cc2c(F)c(Oc3ncnc(Nc4ccc5[nH]ccc5c4)c3C#N)cc(F)c2[nH]1 [Compound 42]

>  <studyTarget>
KDR(h) (Homo sapiens)

>  <measurementKind>
inhibition at 1 µM

>  <valueUnit>
%

>  <measuredResult>
96

$$$$
>  <compound>
Cc1cc2c(F)c(Oc3ncnc(Nc4ccc(N5CCCC5=O)cc4)c3C#N)cc(F)c2[nH]1 [Compound 41]

>  <studyTarget>
KDR(h) (Homo sapiens)

>  <measurementKind>
inhibition at 1 µM

>  <valueUnit>
%

>  <measuredResult>
96

$$$$
>  <compound>
Cc1cc2c(F)c(Oc3ncnc(N4CCN(C)CC4)c3C#N)ccc2[nH]1 [Compound 3]

>  <studyTarget>
KDR(h) (Homo sapiens)

>  <measurementKind>
inhibition at 1 µM

>  <valueUnit>
%

>  <measuredResult>
4

$$$$
>  <compound>
Cc1cc2c(F)c(Oc3ncnc(Nc4ccc(NS(C)(=O)=O)cc4)c3C#N)ccc2[nH]1 [Compound 26]

>  <studyTarget>
KDR(h) (Homo sapiens)

>  <measurementKind>
inhibition at 1 µM

>  <valueUnit>
%

>  <measuredResult>
96

$$$$
>  <compound>
Cc1cc2c(F)c(Oc3ncnc(Nc4ccc(-n5ccnc5C)cc4)c3C#N)ccc2[nH]1 [Compound 13]

>  <studyTarget>
KDR(h) (Homo sapiens)

>  <measurementKind>
inhibition at 1 µM

>  <valueUnit>
%

>  <measuredResult>
85

$$$$

Inquiry: Endpoint output: inhibition at 1 µM of Cc1cc2c(F)c(Oc3ncnc(Nc4ccc(C(=O)N(C)C)cc4)c3C#N)cc(F)c2[nH]1 [Compound 38] . Value?
Reply text: 73

Inquiry: Reported inhibition at 1 µM for Cc1cc2c(F)c(Oc3ncnc(Nc4ccc(CN5CCNCC5)cc4)c3C#N)ccc2[nH]1 [Compound 10] : what is it?
Reply text: 23

Inquiry: Which inhibition at 1 µM is listed for CCOc1ccc(Nc2ncnc(Oc3ccc4[nH]c(C)cc4c3F)c2C#N)cc1 [Compound 29] ?
Reply text: 95

Inquiry: I'd like to know its inhibition at 1 µM. The compound in question is Cc1cc2c(F)c(Oc3ncnc(Nc4ccc(N5CCCCC5)cc4)c3C#N)ccc2[nH]1 [Compound 24]
Reply text: 95

Inquiry: Give its inhibition at 1 µM value. Item: Cc1cc2c(F)c(Oc3ncnc(Nc4ccc(N5CCNCC5)cc4)c3C#N)cc(F)c2[nH]1 [Compound 14]
Reply text: 93

Inquiry: Item Cc1cc2c(F)c(Oc3ncnc(Nc4ccc(N5CCN(C)CC5)c(F)c4)c3C#N)ccc2[nH]1 [Compound 2] has what recorded inhibition at 1 µM?
Reply text: 96

Inquiry: Quick check: inhibition at 1 µM of Cc1cc2c(F)c(Oc3ncnc(Nc4ccc(N5CCN(C)C(C)C5)cc4)c3C#N)cc(F)c2[nH]1 (stereo not shown) [Compound 46] ?
Reply text: 90

Inquiry: Record request: inhibition at 1 µM value, item C=CC(=O)Nc1cccc(Nc2ncnc(Oc3cc(F)c4[nH]c(C)cc4c3F)c2C#N)c1 [Compound 53]
Reply text: 93

Inquiry: What value of measured inhibition at 1 µM is listed for Cc1cc2c(F)c(Oc3ncnc(Nc4ccc(C(N)=O)cc4)c3C#N)cc(F)c2[nH]1 [Compound 36] ?
Reply text: 67

Inquiry: Look up inhibition at 1 µM: Cc1cc2c(F)c(Oc3ncnc(Nc4ccc(F)cc4)c3C#N)cc(F)c2[nH]1 [Compound 39]
Reply text: 36

Inquiry: Please report the recorded inhibition at 1 µM for Cc1cc2c(F)c(Oc3ncnc(Nc4ccc(N5CCN(CC(F)(F)F)CC5)cc4)c3C#N)cc(F)c2[nH]1 [Compound 20] .
Reply text: 42

Inquiry: Could you tell me which inhibition at 1 µM is on file for Cc1cc2c(F)c(Oc3ncnc(Nc4ccc(N5C[C@@H](C)N[C@@H](C)C5)cc4)c3C#N)ccc2[nH]1 [Compound 17] ?
Reply text: 96

Inquiry: Requested read-out: inhibition at 1 µM. Entry: Cc1cc2c(F)c(Oc3ncnc(Nc4ccc(N5CCN6CCCCC6C5)cc4)c3C#N)cc(F)c2[nH]1 (stereo not shown) [Compound 51]
Reply text: 80

Inquiry: What value of inhibition at 1 µM has been recorded for this entry: CNC(=O)c1ccc(Nc2ncnc(Oc3cc(F)c4[nH]c(C)cc4c3F)c2C#N)cc1 [Compound 37]
Reply text: 70

Inquiry: Give the measured inhibition at 1 µM of Cc1cc2c(F)c(Oc3ncnc(Nc4ccc(-n5ccnc5)cc4)c3C#N)ccc2[nH]1 [Compound 12] .
Reply text: 67

Inquiry: Item Cc1cc2c(F)c(Oc3ncnc(Nc4ccc(N5C[C@@H](C)N[C@@H](C)C5)cc4)c3C#N)cc(F)c2[nH]1 [Compound 19] has what recorded inhibition at 1 µM?
Reply text: 86
